This collection of values is drawn from paper PMC4171615.

Molecular target: KGA_F318Y/F322S (Homo sapiens, UniProt O94925, F318Y/F322S)
Construct: a KGA cDNA fragment of 1644 bp (residues Leu123-Leu669); His-tag (N)
Sequence (O94925 123-669 F318Y/F322S): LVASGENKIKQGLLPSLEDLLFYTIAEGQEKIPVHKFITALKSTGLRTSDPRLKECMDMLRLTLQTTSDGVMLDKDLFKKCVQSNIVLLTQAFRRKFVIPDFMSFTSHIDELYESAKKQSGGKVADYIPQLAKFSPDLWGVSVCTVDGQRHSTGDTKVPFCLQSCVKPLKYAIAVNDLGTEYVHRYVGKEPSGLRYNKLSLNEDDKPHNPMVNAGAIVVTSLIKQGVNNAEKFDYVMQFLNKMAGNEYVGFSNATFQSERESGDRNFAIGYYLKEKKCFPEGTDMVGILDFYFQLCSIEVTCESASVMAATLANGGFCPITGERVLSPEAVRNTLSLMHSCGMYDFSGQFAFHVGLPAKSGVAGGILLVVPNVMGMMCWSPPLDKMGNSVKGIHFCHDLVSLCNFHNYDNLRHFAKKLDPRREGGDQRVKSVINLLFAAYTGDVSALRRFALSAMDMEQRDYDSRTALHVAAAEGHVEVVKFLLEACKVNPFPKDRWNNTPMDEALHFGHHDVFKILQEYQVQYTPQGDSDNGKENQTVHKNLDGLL
Assay: Glutaminase activity assay, KGA mutant F318Y/F322S
endpointLabel: IC50 (nM)
Answers are plain numbers, in nM.

[Q] Suppose we examine the molecule CCCCCCCCCCCCCC(CC1=CC(=O)C=C(OC)C1=O)OC(C)=O (stereo not shown) ; what IC50 value has been reported?
[A] 2400
